biological target: HeLa cell extract proteins (Homo sapiens, UniProt P05023); construct: endogenous in cells; host or cells: HeLa cell extract; format: binding; details: protein ATP1A1; HeLa
Metric: fold changes relative to vehicle control

Nc1nc2cccc(-c3ccccc3)c2n1Cc1ccc(Cl)c(Cl)c1
0.94
CCCCCCOc1cccc(Cc2cnc(N)nc2N)c1
1.25
Nc1nc2c(c(=O)[nH]1)N(C=O)C(CNc1ccc(C(=O)N[C@@H](CCC(=O)O)C(=O)O)cc1)CN2 (stereo partly drawn)
0.76
NCCCNc1ccc(C(=O)NC(CCC(=O)O)C(=O)O)cc1 (stereo not drawn)
0.92
NCCOCCOCC(=O)Nc1nc2ncc(CNc3ccc(C(=O)NC(CCC(=O)O)C(=O)O)cc3)nc2c(=O)[nH]1 (stereo not drawn)
1.05

Query block: Item `CCCCCCOc1ccc(Cc2cnc(N)nc2N)cc1` with HeLa cell extract proteins (Homo sapiens, UniProt P05023) - fold changes relative to vehicle control?
Result block: 0.73

====

What fold changes relative to vehicle control was measured for each of the following?
biological target: HeLa cell extract proteins (Homo sapiens, UniProt P49411); construct: endogenous in cells; host or cells: HeLa cell extract; format: binding; settings: protein TUFM; HeLa

Below, each entry is followed by its recorded fold changes relative to vehicle control result.
NCCOCCOCC(=O)Nc1nc2ncc(CNc3ccc(C(=O)NC(CCC(=O)O)C(=O)O)cc3)nc2c(=O)[nH]1 (stereo not drawn)
1.07
CCCCCCOc1cccc(Cc2cnc(N)nc2N)c1
1.68
NCCCNc1ccc(C(=O)NC(CCC(=O)O)C(=O)O)cc1 (stereo not drawn)
0.88
Nc1nc2c(c(=O)[nH]1)N(C=O)C(CNc1ccc(C(=O)N[C@@H](CCC(=O)O)C(=O)O)cc1)CN2 (stereo partly drawn)
0.93

Batch of 2 molecules: report fold changes relative to vehicle control for each.
1. CCCCCCOc1ccc(Cc2cnc(N)nc2N)cc1
2. Nc1nc2cccc(-c3ccccc3)c2n1Cc1ccc(Cl)c(Cl)c1

Result block:
1. 1.18
2. 0.92

====

target: DIHYDROFOLATE REDUCTASE-T[…] (TB427.07.5480) (Trypanosoma brucei brucei); assay: Multitargeted bead mixture competition; type: binding; conditions: multitargeted bead mixture; free ligand 100 μM; T. brucei lysate; TB427.07.5480 DHFR-TS
Sequence (Q27783 whole entry): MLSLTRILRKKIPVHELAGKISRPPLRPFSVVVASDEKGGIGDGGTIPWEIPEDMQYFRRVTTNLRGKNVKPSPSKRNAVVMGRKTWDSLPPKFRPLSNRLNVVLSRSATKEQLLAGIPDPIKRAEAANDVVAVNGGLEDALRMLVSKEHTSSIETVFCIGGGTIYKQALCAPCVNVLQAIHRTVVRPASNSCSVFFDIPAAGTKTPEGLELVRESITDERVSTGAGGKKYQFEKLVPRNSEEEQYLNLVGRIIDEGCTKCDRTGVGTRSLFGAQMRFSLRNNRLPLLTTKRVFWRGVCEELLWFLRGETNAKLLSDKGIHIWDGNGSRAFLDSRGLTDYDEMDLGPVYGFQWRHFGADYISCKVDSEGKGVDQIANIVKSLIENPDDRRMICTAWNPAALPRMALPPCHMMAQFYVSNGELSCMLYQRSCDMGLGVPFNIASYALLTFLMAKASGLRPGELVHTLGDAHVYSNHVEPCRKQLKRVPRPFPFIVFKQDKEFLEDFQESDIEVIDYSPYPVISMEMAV
Metric: percentage of competition from bead binding (%)
Numbers only, in %.

Below, each entry is followed by its recorded percentage of competition from bead binding result.
Nc1nc2cccc(-c3ccccc3)c2n1Cc1ccc(Cl)c(Cl)c1
-11
CN(Cc1cnc2nc(N)nc(N)c2n1)c1ccc(C(=O)N[C@@H](CCC(=O)O)C(=O)O)cc1 [MTX, methotrexate]
85
Cc1ccc2nc(N)[nH]c(=O)c2c1Sc1ccncc1
-5

Attention now turns to another entry.
Query block: Item `Nc1nc(O)c2c(CCc3ccccc3)c[nH]c2n1` with DIHYDROFOLATE REDUCTASE-T[…] (TB427.07.5480) (Trypanosoma brucei brucei) - percentage of competition from bead binding?
Result block: 5

====

What fold changes relative to vehicle control was measured for each of the following?
target: HeLa cell extract proteins (Homo sapiens, UniProt Q00325); construct: endogenous in cells; host or cells: HeLa cell extract; format: binding; details: HeLa; protein SLC25A3
Sequence (Q00325 50-362): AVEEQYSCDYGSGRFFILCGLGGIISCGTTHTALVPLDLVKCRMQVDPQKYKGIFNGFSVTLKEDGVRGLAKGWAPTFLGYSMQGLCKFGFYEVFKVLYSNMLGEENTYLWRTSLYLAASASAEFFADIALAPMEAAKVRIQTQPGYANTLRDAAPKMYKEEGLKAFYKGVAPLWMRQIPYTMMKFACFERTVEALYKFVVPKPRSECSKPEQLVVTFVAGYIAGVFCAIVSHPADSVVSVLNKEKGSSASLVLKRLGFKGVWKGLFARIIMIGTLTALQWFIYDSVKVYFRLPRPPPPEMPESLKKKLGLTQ
One number for each entry.

Below, each entry is followed by its recorded fold changes relative to vehicle control result.
NCCCNc1ccc(C(=O)NC(CCC(=O)O)C(=O)O)cc1 (stereo not drawn)
1.11
NCCOCCOCC(=O)Nc1nc2ncc(CNc3ccc(C(=O)NC(CCC(=O)O)C(=O)O)cc3)nc2c(=O)[nH]1 (stereo not drawn)
1.04
Nc1nc2cccc(-c3ccccc3)c2n1Cc1ccc(Cl)c(Cl)c1
1
CCCCCCOc1cccc(Cc2cnc(N)nc2N)c1
0.96
CCCCCCOc1ccc(Cc2cnc(N)nc2N)cc1
0.98

Attention now turns to another entry.
Query block: Give the measured fold changes relative to vehicle control of Nc1nc2c(c(=O)[nH]1)N(C=O)C(CNc1ccc(C(=O)N[C@@H](CCC(=O)O)C(=O)O)cc1)CN2 (stereo partly drawn) .
Result block: 0.98
